A collection of compounds and their measured Ki
target: human A2a receptor (Homo sapiens); construct: purchased Perkin-Elmer RBHA2AM400UA; host or cells: HEK293 cells (membranes); test: Competition binding assay using Scintillation Proximity technology (A2a activity); settings: membranes from HEK293 cells expressing the human A2a receptor; 0.5 nM tritiated ligand; Cheng-Prusoff

# compound, target_or_system, reading_unit, Ki
data = [
    ("COc1cccc2c1nc(N)n1nc(Cc3cccc(F)c3C)cc21 [Ex-59]", "human A2a receptor (Homo sapiens)", "nM", 21),
    ("COc1cccc2c1nc(N)n1nc(Cc3cccc(C#N)c3)cc21 [Ex-52]", "human A2a receptor (Homo sapiens)", "nM", 33),
    ("COc1cccc2c1nc(N)n1nc(Cc3ccccc3C#N)cc21 [Ex-50]", "human A2a receptor (Homo sapiens)", "nM", 2),
    ("COc1cccc2c1nc(N)n1nc(C(=O)N3CCCC3)cc21 [Ex-74]", "human A2a receptor (Homo sapiens)", "nM", 5),
]

###

target: human A2a receptor (Homo sapiens, UniProt P29274); construct: purchased Perkin-Elmer RBHA2AM400UA; host or cells: HEK293 cells (membranes); experiment: Competition binding assay using Scintillation Proximity technology (A2a activity); settings: membranes from HEK293 cells expressing the human A2a receptor; 0.5 nM tritiated ligand; Cheng-Prusoff
Sequence (P29274 whole entry): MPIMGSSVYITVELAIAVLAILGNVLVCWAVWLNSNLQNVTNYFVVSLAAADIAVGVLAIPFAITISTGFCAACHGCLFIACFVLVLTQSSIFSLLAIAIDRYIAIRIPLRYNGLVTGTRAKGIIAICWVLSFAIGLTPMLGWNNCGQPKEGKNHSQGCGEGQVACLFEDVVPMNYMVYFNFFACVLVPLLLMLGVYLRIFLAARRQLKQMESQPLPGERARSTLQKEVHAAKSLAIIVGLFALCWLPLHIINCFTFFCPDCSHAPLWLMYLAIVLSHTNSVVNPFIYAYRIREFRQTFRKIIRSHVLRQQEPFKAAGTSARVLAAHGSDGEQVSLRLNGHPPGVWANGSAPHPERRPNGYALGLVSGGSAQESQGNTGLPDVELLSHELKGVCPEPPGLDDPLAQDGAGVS
A collection of molecules and their measured log10 of Ki
outcome_measure: log10 of Ki (log10 of the value in nM)

# molecule, target_or_system, assay_value
records = [
    ("COc1cccc2c1nc(N)n1nc(Cc3ccccc3CN3CC(O)C3)cc21 [Ex-28]", "human A2a receptor (Homo sapiens, UniProt P29274)", 0.95),
    ("Nc1nc2ccccc2c2cc(Cc3ccccc3CN3CCOCC3)nn12 [Ex-97]", "human A2a receptor (Homo sapiens, UniProt P29274)", 1.71),
    ("COC(=O)N1CCC2(CCN(C(=O)c3cc4c5cccc(OC)c5nc(N)n4n3)C2)C1 (centres unmarked) [Ex-88]", "human A2a receptor (Homo sapiens, UniProt P29274)", 0.85),
    ("COc1cccc2c1nc(N)n1nc(Cc3cccc4nc(C)ccc34)cc21 [Ex-57]", "human A2a receptor (Homo sapiens, UniProt P29274)", 2.22),
    ("COc1ccc(Cc2cc3c4cccc(OC)c4nc(N)n3n2)cc1 [Ex-33]", "human A2a receptor (Homo sapiens, UniProt P29274)", 1.51),
    ("COc1cccc2c1nc(N)n1nc(Cc3cccc(N4CCOCC4)c3)cc21 [Ex-23]", "human A2a receptor (Homo sapiens, UniProt P29274)", 1.41),
    ("COc1cccc2c1nc(N)n1nc(Cc3cncnc3)cc21 [Ex-10]", "human A2a receptor (Homo sapiens, UniProt P29274)", 1.56),
    ("COc1cccc2c1nc(N)n1nc(C(=O)N3CCC4(CCNC4)C3)cc21 (centres unmarked) [Ex-86]", "human A2a receptor (Homo sapiens, UniProt P29274)", 1.89),
]
